ASSAY SYSTEM: Chromo domain-containing protein 1 (Saccharomyces cerevisiae (strain ATCC 204508 / S288c) (Baker's yeast)) (UniProt P32657)
Sequence (P32657 whole entry, the tested form may be a part): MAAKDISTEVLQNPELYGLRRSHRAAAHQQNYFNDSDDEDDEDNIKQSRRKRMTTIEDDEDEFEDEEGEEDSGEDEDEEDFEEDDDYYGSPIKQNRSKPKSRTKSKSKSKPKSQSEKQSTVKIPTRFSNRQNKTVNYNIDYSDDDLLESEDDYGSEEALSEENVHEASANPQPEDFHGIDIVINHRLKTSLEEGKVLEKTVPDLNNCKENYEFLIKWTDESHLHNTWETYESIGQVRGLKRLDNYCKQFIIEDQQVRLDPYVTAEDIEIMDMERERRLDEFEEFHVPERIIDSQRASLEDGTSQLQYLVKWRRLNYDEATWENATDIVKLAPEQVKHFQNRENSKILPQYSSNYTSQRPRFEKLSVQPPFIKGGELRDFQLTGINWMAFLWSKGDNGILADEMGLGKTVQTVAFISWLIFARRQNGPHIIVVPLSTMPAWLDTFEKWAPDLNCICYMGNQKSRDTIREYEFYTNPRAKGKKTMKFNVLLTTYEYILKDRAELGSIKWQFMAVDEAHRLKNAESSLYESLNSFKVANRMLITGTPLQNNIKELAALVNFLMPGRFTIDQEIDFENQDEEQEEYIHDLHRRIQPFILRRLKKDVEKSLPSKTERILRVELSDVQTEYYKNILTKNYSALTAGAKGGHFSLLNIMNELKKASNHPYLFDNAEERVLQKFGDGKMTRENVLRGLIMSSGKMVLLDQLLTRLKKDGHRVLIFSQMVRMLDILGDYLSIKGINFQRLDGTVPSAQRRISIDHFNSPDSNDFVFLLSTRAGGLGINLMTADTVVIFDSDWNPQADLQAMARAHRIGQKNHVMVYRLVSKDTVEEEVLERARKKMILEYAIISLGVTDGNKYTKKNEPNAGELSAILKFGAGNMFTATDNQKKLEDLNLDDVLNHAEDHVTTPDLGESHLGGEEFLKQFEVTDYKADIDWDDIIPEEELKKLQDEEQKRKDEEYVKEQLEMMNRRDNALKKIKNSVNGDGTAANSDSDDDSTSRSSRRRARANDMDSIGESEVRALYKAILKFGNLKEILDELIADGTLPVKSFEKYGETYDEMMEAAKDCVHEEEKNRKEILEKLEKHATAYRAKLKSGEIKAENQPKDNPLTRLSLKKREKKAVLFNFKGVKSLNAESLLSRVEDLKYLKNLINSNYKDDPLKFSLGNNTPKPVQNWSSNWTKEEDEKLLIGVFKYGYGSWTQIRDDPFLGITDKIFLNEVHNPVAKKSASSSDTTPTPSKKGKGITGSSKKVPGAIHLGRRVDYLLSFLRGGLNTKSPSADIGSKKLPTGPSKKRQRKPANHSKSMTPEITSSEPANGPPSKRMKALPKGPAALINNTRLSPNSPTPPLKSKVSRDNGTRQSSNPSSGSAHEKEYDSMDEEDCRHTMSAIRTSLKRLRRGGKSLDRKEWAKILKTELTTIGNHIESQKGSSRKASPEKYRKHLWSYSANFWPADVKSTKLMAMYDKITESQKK
ASSAY REMARKS: ScCHD-1 Enzyme Inhibition Assay
Format: functional
Parameters: scale not given: in the data most compounds retested in dose-response had high values
PROTOCOL CONDITIONS: 30 µM
READOUT: Percent Effect (%)

* O=C(c1ccc(O)c(Cl)c1)N1CCC(c2n[nH]c(C3CC3)n2)CC1 | -0.322
* CC(C)c1nc2n(n1)CC(NCc1ccncc1)CC2 (configuration not stated) | -1.54
* Cc1nc(CN2CCN(C(=O)c3sccc3C3CC3)CC2)cs1 | -13.7
* CC(CNC(=O)Nc1cn[nH]c1)N1CCOCC1 (configuration not stated) | -18.5
* CC(C)Oc1ccc(CNC(=O)CC(F)(F)F)cc1F | -4.45
* CSC(C)(C)CNC(=O)NCCC1CCN(C)CC1 | 1.16
* Cc1ccc(NC(=O)NC(C)c2nc[nH]n2)cc1 (configuration not stated) | -1.66
* CN(Cc1ncc(-c2ccccc2)o1)CC1CCCN1c1cccnn1 (configuration not stated) | -9.3
* CN(C)C(=O)CNC(=O)Nc1cccc(Cl)c1SC(F)F | 0.00979
* CC(C)S(=O)(=O)N1CCC(c2cc3n(n2)[C@@H](C(F)(F)F)C[C@@H](C)N3)C1 (some centres not stated) | -0.108
* O=C(c1cccs1)N1CCC2(C1)c1ccccc1S(=O)(=O)N2CC1CC1 (configuration not stated) | 1.11
* CCCc1cc(NC2CCc3ncnn3C2)n2ncnc2n1 (configuration not stated) | -3.04
* COc1ccc(S(=O)(=O)NCc2cccnc2N(C)C)cc1F | -5.49
* CC(C)n1ncc2c1NC(=O)CC21C(=O)Nc2c(Cl)cc(Cl)cc21 (configuration not stated) | -4.48
* CC1CCCN(CC(=O)N2CCC(c3ncc4c(n3)CCNC4)CC2)C1 (configuration not stated) | 2.27
* CN(Cc1cccc(O)c1)CC1CCCN(CCc2ccc(Cl)cc2)C1 (configuration not stated) | -0.68
* CN1CCN(CCCNC(=O)c2cc(Cl)c3c(c2)OCO3)CC1 | -2.83
* CCn1nc(C)c2nnn(CC(=O)Nc3cccc(Cl)c3)c(=O)c21 | -7
* Cc1ccc(CN2CCC3(CC2)CC(c2cccnc2)CO3)s1 (configuration not stated) | -2.92
* CCc1nsc(NC2CCCn3nc(COC)nc32)n1 (configuration not stated) | -6.59
* CCOc1ccccc1C(CC(=O)Nc1ccccc1F)NC(C)=O (configuration not stated) | -4.56
* CC(C)n1cc(CN2CCCN(C(=O)c3ccc[nH]3)CC2)cn1 | -0.327
* CCc1nnc2n1CCN(Cc1ccc3c(c1)OCCO3)C2 | -0.119
* CC(=O)Nc1nc(C(=O)N2CCCC(n3nc(C)cc3C)C2)cs1 (configuration not stated) | 5.41
* Cc1cnc2n(c1=O)CC(C(=O)Nc1ccccc1Cl)CS2 (configuration not stated) | -1.89
* COCC1Cn2nnc(-c3cnn(C)c3)c2CN1Cc1ccco1 (configuration not stated) | -5.92
* C=C1c2ccccc2C(=O)N1CCC(=O)N1CCNC(=O)C1 | -3.42
* Cc1ccc(CNCc2nnc3n2CC(C(F)(F)F)CC3)cc1 (configuration not stated) | -11.9
* COCC(=O)NC1CC2(CCN(Cc3ccco3)CC2)c2ccccc21 (configuration not stated) | -3.97
* Cc1ccc(S(=O)(=O)N2C[C@H]3C[C@H](NC(=O)c4ccn(C)n4)[C@H]3C2)cc1 | -25.8
* CN1CCOC(CNCc2cccc(OCc3ccccn3)c2)C1 (configuration not stated) | -2.11
* Cc1nc(CN2CCCC(N(C)Cc3cscn3)C2)no1 (configuration not stated) | -17.6
* CCOc1ncccc1NC(=O)c1sccc1C | 4
* Cc1ccc(C(=O)N2CCSCC2)cc1NC(=O)Cn1cncn1 | -7.01
* COCCN1CCCC(c2nc3c([nH]2)CC(C)(C)CNC3=O)C1 (configuration not stated) | 0.619
* Cc1nc(CN2CCCC(N(C)CCc3ccncc3)C2)no1 (configuration not stated) | 0.929
* COc1cc(CN2CC[C@@]3(CCCO3)[C@@H](O)C2)ccc1F | -12.2
* O=C1[C@H]2CC[C@H](CN(C3CSCCSC3)C2)N1Cc1cscn1 | 1.67
* Cc1cc(C)n(C2CCCN(C(=O)c3cnc4onc(C)c4c3)C2)n1 (configuration not stated) | -15.5
* Cc1csc(NC(=O)CN(C)CC2CCCN2c2cccnn2)n1 (configuration not stated) | -4.21
* COc1cccc(CN2CCCC2c2c(C)nn(C)c2C)c1 (configuration not stated) | -3.67
* FC1(F)CCN(Cc2ccncc2)CC12CCN(Cc1ccccn1)C2 (configuration not stated) | -2.99
* CCN1CCN(c2ccc(F)cc2C(C)NCc2noc(C)n2)CC1 (configuration not stated) | -0.843
* c1ccc(C[C@H]2[C@H](N3CCOCC3)CCN2Cc2cccnc2)cc1 | -4.71
* O=C(NCCN1CCOCC1)c1cc(-c2ccc3c(c2)CCO3)n[nH]1 | -6.47
* CN(CC1CCCO1)C1CCN(CCc2ccccn2)CC1 (configuration not stated) | 8.88
* CC(C)Sc1ncccc1C(=O)NCc1ccc(CS(C)(=O)=O)cc1 | -15.6
